Origin of measurements: ChEMBL document CHEMBL1149424

- run-description: Half life in Sprague-Dawley rat
- Type: ADME, organism-based
- stated-conditions: in vivo
value-type: half-life

* CC(=O)Nc1c(C(C)=O)c(=O)n(C)c2nc(-c3ccc(Cl)cc3Cl)c(-c3ccc(Cl)cc3)cc12 | > 480 min

* * *

- run-description: Oral bioavailability in C57BL/6 mouse
- Assay type: ADME, organism-based
- stated-conditions: in vivo
value-type: bioavailability (%)

- CC(=O)Nc1c(C(C)=O)c(=O)n(C)c2nc(-c3ccc(Cl)cc3Cl)c(-c3ccc(Cl)cc3)cc12: 70

* * *

- run-description: Plasma clearance in rhesus macaque
- Format: ADME, organism-based, Macaca mulatta
- stated-conditions: rhesus monkey
value-type: clearance (mL/min/kg)

- CC(=O)Nc1c(C(C)=O)c(=O)n(C)c2nc(-c3ccc(Cl)cc3Cl)c(-c3ccc(Cl)cc3)cc12: 1.4
